TEST_PROTOCOL: Metabolic stability in human liver microsomes (in vitro t1/2)
Format: in vitro ADME
APPLIED_CONDITIONS: human liver microsomes 0.5 mg/mL, 2 μM compound, % remaining at 60 min
Could you please report measured Human microsome % 60 min for the items listed next?
Give bare numbers, in %.

Example entries begin here.
>>> test_result("CC(C)(OCc1cc(-c2cccc(OC3CC3)c2)n(-c2ccccc2N2CCCC2)n1)C(=O)O")
56
>>> test_result("COc1cc(OC)cc(-c2cc(COC(C)(C)C(=O)O)nn2Cc2ccccc2Cl)c1")
91
>>> test_result("COc1cccc(-c2cc(COC(C)(C)C(=O)O)nn2Cc2ccccc2OC)c1")
85
>>> test_result("COc1cccc(-c2cc(COC(C)(C)C(=O)O)nn2Cc2ccccc2OC(C)C)c1")
67
>>> test_result("CC(C)(OCc1cc(-c2cccc(OC3CC3)c2)n(-c2ccc(F)cc2N2CCC2)n1)C(=O)O")
66
>>> test_result("CCn1ncc2ccc(-c3cc(COC(C)(C)C(=O)O)nn3-c3ccccc3N3CCCC3)cc21")
64
>>> test_result("CC(C)(OCc1cc(-c2cccc(OC3CC3)c2)n(Cc2ccccc2Cl)n1)C(=O)O")
89

# input for lookup
Asked: What value of Human microsome % 60 min has been recorded for this entry: "Cn1ncc2cccc(-n3nc(COC(C)(C)C(=O)O)cc3-c3cccc(OCC4CCC4)c3)c21"
Given back: 78

====

Could you please report measured Rat microsome % 60 min for the items listed next?
TEST_PROTOCOL: Metabolic stability in rat liver microsomes (in vitro t1/2)
Type: in vitro ADME
APPLIED_CONDITIONS: rat liver microsomes 0.5 mg/mL, 2 μM compound, % remaining at 60 min
Numbers only, in %.

>>> test_result("CCCn1ncc2ccc(-c3cc(COC(C)(C)C(=O)O)nn3-c3ccccc3N3CCC3)cc21")
69
>>> test_result("COc1cc(OC)cc(-c2cc(COC(C)(C)C(=O)O)nn2-c2ccccc2N2CCC2)c1")
83
>>> test_result("Cn1ncc2cccc(-n3nc(COC(C)(C)C(=O)O)cc3-c3cccc(OC4CC4)c3)c21")
94
>>> test_result("CC(C)COc1cccc(-c2cc(COC(C)(C)C(=O)O)nn2-c2cccc3cnn(C)c23)c1")
95
>>> test_result("CCOc1ccccc1Cn1nc(COC(C)(C)C(=O)O)cc1-c1ccc2cnn(CC)c2c1")
82

# input for lookup
Asked: What value of Rat microsome % 60 min has been recorded for this entry: "CC(C)(C)COc1cccc(-c2cc(COC(C)(C)C(=O)O)nn2-c2ccccc2N2CCC2)c1"
Given back: 70

====

TEST_PROTOCOL: Metabolic stability in mouse liver microsomes (in vitro t1/2)
Assay type: in vitro ADME
APPLIED_CONDITIONS: mouse liver microsomes 0.5 mg/mL, 2 μM compound, % remaining at 60 min
PARAMETER: Mouse microsome % 60 min (%)
Answers are plain numbers, in %.

Example entries begin here.
>>> test_result("Cc1ccccc1-n1nc(COC(C)(C)C(=O)O)cc1-c1cccc(OC2CC2)c1 [Example 188]")
92
>>> test_result("CCOc1ccccc1Cn1nc(COC(C)(C)C(=O)O)cc1-c1ccc2cnn(CC)c2c1 [Example 198]")
84

# return Mouse microsome % 60 min for each item in the list
1. CC(C)COc1cccc(-c2cc(COC(C)(C)C(=O)O)nn2-c2cccc3cnn(C)c23)c1 [Example 170]
2. COc1cc(OC)cc(-c2cc(COC(C)(C)C(=O)O)nn2-c2ccccc2Cl)c1 [Example 179]

Given back:
1: 99; 2: 98
